This section presents compounds with their documented max response values.
Test system: KB-3-1
Assay: Cytotoxic Profiling of Annotated Libraries Using Quantitative High-Throughput Screening (AID 1296008); note: % is set by controls: 0 for no effect and ±100 for the full control effect; nearly all actives have a fitted effect of over 60% in size
Settings: Five cell lines viability, CellTiter-Glo ATP luminescence, 48-72 h; active compounds read low
Method: Cell-based phenotypic screening is a commonly used approach to discover biological pathways, novel drug targets, chemical probes and high-quality hit-to-lead molecules. […] A pintool (Kalypsys) was used to transfer 23 nL of compound solution to the 1536-well assay plates. […] Plates were left at room temperature for 10 min before imaging the ATP-coupled luminescence using a ViewLux microplate imager (PerkinElmer, Waltham, MA).
Inconclusive results are not listed.

{"COMPOUND": "C[C@]12CCC(=O)C(O)=C1CC[C@@H]1[C@@H]2CC[C@]2(C)C(=O)CC[C@@H]12", "TESTED SYSTEM": "KB-3-1", "UNIT ABBREVIATION": "%", "max response": -15.7}
{"COMPOUND": "O=c1oc2ccccc2c(O)c1C(CC(O)c1ccc(-c2ccc(Br)cc2)cc1)c1ccccc1 (stereo not given)", "TESTED SYSTEM": "KB-3-1", "UNIT ABBREVIATION": "%", "max response": 0.095}
{"COMPOUND": "C=C1CC[C@@]2(O)[C@H]3Cc4ccc(O)c5c4[C@@]2(CCN3CC2CC2)[C@H]1O5", "TESTED SYSTEM": "KB-3-1", "UNIT ABBREVIATION": "%", "max response": 3.52}
{"COMPOUND": "CC[N+]1(C)CCCC(OC(=O)C(O)(c2ccccc2)c2ccccc2)C1 (stereo not given)", "TESTED SYSTEM": "KB-3-1", "UNIT ABBREVIATION": "%", "max response": 3.82}
{"COMPOUND": "CCCC1CCCCN1 (stereo not given)", "TESTED SYSTEM": "KB-3-1", "UNIT ABBREVIATION": "%", "max response": -0.9}

Just for reference, PubChem BioAssay (NCATS) is where these values come from.
